TARGET: IDH1 R132H (Homo sapiens, UniProt O75874, R132H)
Sequence (O75874 whole entry R132H): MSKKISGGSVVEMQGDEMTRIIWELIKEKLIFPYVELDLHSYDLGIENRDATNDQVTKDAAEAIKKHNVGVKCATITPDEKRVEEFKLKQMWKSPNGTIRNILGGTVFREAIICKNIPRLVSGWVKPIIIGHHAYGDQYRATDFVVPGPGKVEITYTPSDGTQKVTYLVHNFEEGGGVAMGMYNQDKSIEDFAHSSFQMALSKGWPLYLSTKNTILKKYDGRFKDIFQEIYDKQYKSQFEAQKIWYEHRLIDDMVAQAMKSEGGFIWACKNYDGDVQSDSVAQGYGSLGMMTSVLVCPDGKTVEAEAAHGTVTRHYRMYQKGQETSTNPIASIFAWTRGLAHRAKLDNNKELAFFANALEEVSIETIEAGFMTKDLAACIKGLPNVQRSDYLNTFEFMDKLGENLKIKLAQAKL
EXPERIMENT_DESCRIPTION: IDH1 R132H enzymatic assay (NADPH depletion coupled to diaphorase/resazurin)
Type: biochemical
RUN_PARAMETERS: IDH1 R132H enzymatic inhibition, IC50 class
Below: a set of entries, each annotated with reported IC50.

Past entries and their recorded results:
Query: Hello, I am looking for reported IC50 with IDH1 R132H (Homo sapiens, UniProt O75874, R132H) for `CC1(C)CC(=O)c2cc(-c3nc(-c4ccc(C(F)(F)F)cc4)cs3)c(=O)n(-c3ccccc3C(F)(F)F)c2C1` . Could you help?
Result: 0.3 to 1 µM

Query: Hello, I am looking for reported IC50 with IDH1 R132H (Homo sapiens, UniProt O75874, R132H) for `CCc1cccc(CC)c1-n1c(CC(C)C)c(C(=O)N2CCNCC2)cc(-c2nc(-c3ccc(OC)cc3)c(C)s2)c1=O` . Could you help?
Result: 0.3 to 1 µM

Query: Hello, I am looking for reported IC50 with IDH1 R132H (Homo sapiens, UniProt O75874, R132H) for `CCc1cccc(CC)c1-n1c(C2CCCC2)c(C(=O)N2CCNCC2)cc(-c2nc(-c3ccc(Cl)cc3)cs2)c1=O` . Could you help?
Result: 0.3 to 1 µM

Attention now turns to another entry.
Query: Hello, I am looking for reported IC50 with IDH1 R132H (Homo sapiens, UniProt O75874, R132H) for `CCc1cccc(CC)c1-n1c2c(cc(-c3nc(-c4ccc(OC)cc4)cs3)c1=O)C(=O)CC(C)(C)C2` . Could you help?
Result: 0.3 to 1 µM

Hello, the source for this data is patent US10703746B2, in case you need it.
